Provenance of the data: patent US12180193B2

Biological target: BRAF G466V (Homo sapiens, UniProt P15056, G466V)
Construct: expressed in transfected cells
Sequence (P15056 whole entry G466V): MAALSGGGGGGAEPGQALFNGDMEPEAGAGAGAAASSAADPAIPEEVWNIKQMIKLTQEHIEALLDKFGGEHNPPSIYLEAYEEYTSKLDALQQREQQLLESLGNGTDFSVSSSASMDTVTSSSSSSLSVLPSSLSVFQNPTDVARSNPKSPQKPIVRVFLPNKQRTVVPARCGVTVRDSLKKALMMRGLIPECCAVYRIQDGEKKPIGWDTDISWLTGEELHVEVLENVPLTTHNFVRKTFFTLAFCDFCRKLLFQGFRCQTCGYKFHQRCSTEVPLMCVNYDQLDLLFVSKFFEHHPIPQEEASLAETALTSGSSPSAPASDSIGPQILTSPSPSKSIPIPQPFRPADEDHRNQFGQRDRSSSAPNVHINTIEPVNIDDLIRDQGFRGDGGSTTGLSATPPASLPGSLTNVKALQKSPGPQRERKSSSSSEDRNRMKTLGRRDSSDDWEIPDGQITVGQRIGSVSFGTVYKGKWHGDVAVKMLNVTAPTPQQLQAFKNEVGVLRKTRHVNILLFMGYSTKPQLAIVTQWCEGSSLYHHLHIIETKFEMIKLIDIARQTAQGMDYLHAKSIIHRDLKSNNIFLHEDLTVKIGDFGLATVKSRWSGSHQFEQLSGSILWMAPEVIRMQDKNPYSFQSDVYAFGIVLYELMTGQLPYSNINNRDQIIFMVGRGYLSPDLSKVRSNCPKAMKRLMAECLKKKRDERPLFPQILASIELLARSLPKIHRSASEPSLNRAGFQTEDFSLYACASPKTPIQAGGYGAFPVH
Assay: Cellular assay of target protein degradation, T-Rex 293 cells stably transfected with HA-BRAF G466V (HA immunofluorescence, high content imaging)
Format: cell-based
Details: maximum degradation observed, T-Rex 293 HA-BRAF G466V
Listing of entries alongside the reported Dmax.

molecule="CN(CCN1CCN(c2ccc3c(c2)CN(C2CCC(=O)NC2=O)C3=O)CC1)[C@H]1C[C@@H](Oc2ccc(-c3cnc4[nH]cc(C(=O)c5c(F)ccc(NS(=O)(=O)N6CC[C@@H](F)C6)c5F)c4c3)cc2)C1 (stereo partly drawn) [Compound 182]" quantity_measured=Dmax result="> 70%"
molecule="COc1cc(OCCN2CCN(CCOc3ccc(-c4cnc5[nH]cc(C(=O)c6c(F)ccc(NS(=O)(=O)N7CC[C@@H](F)C7)c6F)c5c4)cc3)CC2)cc2c1C(=O)N([C@H]1CCC(=O)NC1=O)C2 [Compound 44]" quantity_measured=Dmax result="35 to 70%"
molecule="O=C1CCC(N2Cc3cc(C(O)CCN4CC5(C4)CN(c4ccc(-c6cnc7[nH]cc(C(=O)c8c(F)ccc(NS(=O)(=O)N9CC[C@@H](F)C9)c8F)c7c6)cc4)C5)ccc3C2=O)C(=O)N1 (stereo partly drawn) [Compound 61]" quantity_measured=Dmax result="35 to 70%"

Exam item: Given the entry O=C1CCC(N2Cc3cc(N4CC5(CN(CCOc6ccc(-c7cnc8[nH]cc(C(=O)c9c(F)ccc(NS(=O)(=O)N%10CC[C@@H](F)C%10)c9F)c8c7)cc6)C5)C4)ccc3C2=O)C(=O)N1 (stereo partly drawn) [Compound 50] , report its measured Dmax.
Marked response: > 70%

Exam item: Given the entry O=C1CC[C@H](N2Cc3cc(N4CCC(CN5CCN(C6(c7ncc(-c8cnc9[nH]cc(C(=O)c%10c(F)ccc(NS(=O)(=O)N%11CC[C@@H](F)C%11)c%10F)c9c8)cn7)CC6)CC5)CC4)ccc3C2=O)C(=O)N1 [Compound 201] , report its measured Dmax.
Marked response: 35 to 70%

Exam item: Given the entry O=C1CCC(N2Cc3cc(OC[C@@H](O)CN4CC5(C4)CN(c4ccc(-c6cnc7[nH]cc(C(=O)c8c(F)ccc(NS(=O)(=O)N9CC[C@@H](F)C9)c8F)c7c6)cc4)C5)ccc3C2=O)C(=O)N1 (stereo partly drawn) [Compound 122] , report its measured Dmax.
Marked response: > 70%

Exam item: Given the entry O=C1CCC(N2Cc3cc(CCCN4CC5(C4)CN(c4ncc(-c6cnc7[nH]cc(C(=O)c8c(F)ccc(NS(=O)(=O)N9CC[C@@H](F)C9)c8F)c7c6)cn4)C5)ccc3C2=O)C(=O)N1 (stereo partly drawn) [Compound 147] , report its measured Dmax.
Marked response: 35 to 70%

Exam item: Given the entry O=C1CCC(N2Cc3cc(C4CCN(CC5CCN(c6ccc(-c7cnc8[nH]cc(C(=O)c9c(F)ccc(NS(=O)(=O)N%10CC[C@@H](F)C%10)c9C(F)(F)F)c8c7)cc6)CC5)CC4)ccc3C2=O)C(=O)N1 (stereo partly drawn) [Compound 273] , report its measured Dmax.
Marked response: 35 to 70%

Exam item: Given the entry O=C1CC[C@H](N2Cc3cc(/C=C/CN4CC5(C4)CN(c4ccc(-c6cnc7[nH]cc(C(=O)c8c(F)ccc(NS(=O)(=O)N9CC[C@@H](F)C9)c8F)c7c6)cc4)C5)ccc3C2=O)C(=O)N1 [Compound 38] , report its measured Dmax.
Marked response: 35 to 70%
